pIC50: −log10 of the molar value.
Parameter 'readout' = pIC50; parameter 'system' = Carboxylic ester hydrolase (Rattus norvegicus, UniProt Q9JKC1).
Sequence (Q9JKC1 whole entry): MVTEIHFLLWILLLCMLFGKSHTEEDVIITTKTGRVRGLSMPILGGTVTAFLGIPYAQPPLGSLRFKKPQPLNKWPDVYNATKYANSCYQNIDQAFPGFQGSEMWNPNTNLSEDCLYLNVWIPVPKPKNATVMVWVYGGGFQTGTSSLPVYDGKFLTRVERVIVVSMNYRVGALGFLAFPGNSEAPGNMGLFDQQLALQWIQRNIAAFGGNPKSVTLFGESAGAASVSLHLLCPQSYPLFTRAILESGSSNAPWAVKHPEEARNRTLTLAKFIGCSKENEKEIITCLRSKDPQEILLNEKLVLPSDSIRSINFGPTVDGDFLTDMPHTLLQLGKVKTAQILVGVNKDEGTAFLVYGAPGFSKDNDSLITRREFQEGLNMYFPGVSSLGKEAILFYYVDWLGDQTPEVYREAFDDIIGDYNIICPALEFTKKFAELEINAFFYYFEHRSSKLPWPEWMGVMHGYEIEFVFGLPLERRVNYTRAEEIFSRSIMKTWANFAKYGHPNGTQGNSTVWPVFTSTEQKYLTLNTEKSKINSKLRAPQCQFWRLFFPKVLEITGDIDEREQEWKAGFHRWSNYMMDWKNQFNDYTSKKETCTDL
Metric: pIC50

>  <Smiles Data>
CCN(CC)C(=O)Oc1ccc(-c2cc(=O)c3c(O)c(O)c(O)cc3o2)cc1

>  <Censoring Qualifier>
=

>  <Readout Number>
4.66

$$$$
>  <Smiles Data>
O=C(Oc1ccc(-c2cc(=O)c3c(O)c(O)c(O)cc3o2)cc1)N1CCC(Cc2ccccc2)CC1

>  <Censoring Qualifier>
=

>  <Readout Number>
4.46

$$$$
>  <Smiles Data>
O=C(Oc1ccc(-c2cc(=O)c3c(O)c(O)c(O)cc3o2)cc1)N1CCCC1

>  <Censoring Qualifier>
<

>  <Readout Number>
4.00

$$$$
>  <Smiles Data>
CC(C)N(C(=O)Oc1ccc(-c2cc(=O)c3c(O)c(O)c(O)cc3o2)cc1)C(C)C

>  <Censoring Qualifier>
=

>  <Readout Number>
4.38

$$$$
